FYI, the data here is from patent US9090600B2.

The following compounds are listed with their measured Eff. % values.
- Test system: Mycosphaerella graminicola
- Protocol Summary: In vivo test on Mycosphaerella graminicola (wheat leaf spot)
- Details: wheat plants, spray, 500 ppm, grading 21 to 28 days after contamination
- Protocol: The active ingredients tested are prepared by homogenization in a mixture of acetone/tween/DMSO, then diluted with water to obtain the desired active material concentration. Wheat plants (Scipion variety), sown on a 50/50 peat soil-pozzolana substrate in starter cups and grown at 22° C. (12 h)/20° C. (12 h), are treated at the 1-leaf stage (10 cm tall) by spraying with the aqueous suspension described above. […]

[
  {
    "Compound": "CC(Nc1cccc(CO/N=C(/c2ccccc2)c2noc(=O)n2C)n1)c1ccccc1 (stereo not drawn) [Example 43]",
    "Unit Label": "%",
    "Eff. %": 91
  },
  {
    "Compound": "Cn1c(C(=NOCc2cccc(NC(=O)Cc3cc(F)ccc3F)n2)c2ccccc2)noc1=O [Example 255]",
    "Unit Label": "%",
    "Eff. %": 88
  },
  {
    "Compound": "CCC(=O)Nc1cccc(CO/N=C(/c2ccccc2)c2noc(=O)n2C)n1 [Example 71]",
    "Unit Label": "%",
    "Eff. %": 88
  },
  {
    "Compound": "Cc1cccc(/C(=N/OCc2cccc(NC(=O)OCc3ccccc3)n2)c2noc(=O)n2C)c1 [Example 117]",
    "Unit Label": "%",
    "Eff. %": 90
  },
  {
    "Compound": "Cn1c(/C(=N\\OCc2cccc(NC(=O)CCCC[n+]3ccccc3)n2)c2ccccc2)noc1=O.O=C[O-] [Example 67]",
    "Unit Label": "%",
    "Eff. %": 90
  },
  {
    "Compound": "COc1cccc(CCOC(=O)Nc2cccc(CO/N=C(/c3ccccc3)c3noc(=O)n3C)n2)c1 [Example 151]",
    "Unit Label": "%",
    "Eff. %": 92
  }
]

* * *

- Details: pH 2.7
Marks after values point to notes of the source that are not given here.
The following compounds are listed with their measured LogP values.

[
  {
    "Structure As Smiles": "CCCCOC(=O)Nc1cccc(CO/N=C(/c2cccc(OC)c2)c2noc(=O)n2C)n1",
    "LogP": "4.06 [a]"
  },
  {
    "Structure As Smiles": "Cc1ccc(C(=O)Nc2cccc(CO/N=C(/c3ccccc3)c3noc(=O)n3C)n2)cc1C",
    "LogP": "4.16 [a]"
  },
  {
    "Structure As Smiles": "CCOCCCOC(=O)Nc1cccc(CO/N=C(/c2ccccc2)c2noc(=O)n2C)n1",
    "LogP": "3.44 [a]"
  },
  {
    "Structure As Smiles": "C#CCCOC(=O)Nc1cccc(CO/N=C(/c2ccccc2)c2noc(=O)n2CC#C)n1",
    "LogP": "3.46 [a]"
  },
  {
    "Structure As Smiles": "Cn1c(C(=NOCc2cccc(NC(=O)OCCc3ccccc3)n2)c2ccc(F)cc2)noc1=O",
    "LogP": "4.24 [a]"
  },
  {
    "Structure As Smiles": "C#CCCOC(=O)Nc1cccc(CO/N=C(/c2ccccc2)c2noc(=O)n2C)n1",
    "LogP": "3.27 [a]"
  },
  {
    "Structure As Smiles": "CCCCC(=O)Nc1cccc(CO/N=C(/c2cccc(C)c2)c2noc(=O)n2C)n1",
    "LogP": "3.83 [a]"
  },
  {
    "Structure As Smiles": "Cn1c(/C(=N\\OCc2csc(NC(=O)OCC(C)(C)C)n2)c2ccccc2)noc1=O",
    "LogP": "4.01 [a]"
  },
  {
    "Structure As Smiles": "CC(C)(C)OC(=O)Nc1cccc(CO/N=C(/c2ccccc2)c2noc(=O)[nH]2)n1",
    "LogP": "3.76 [a]"
  },
  {
    "Structure As Smiles": "CC(C)OC(=O)Nc1cccc(CO/N=C(/c2ccccc2)c2noc(=O)n2C)n1",
    "LogP": "3.55 [a]"
  }
]

* * *

- Test system: Puccinia recondita
- Protocol Summary: In vivo test on Puccinia recondita (brown rust)
- Details: wheat plants, spray, 500 ppm, grading 10 days after contamination
Reported Endpoint: Eff. % (%)

[
  {
    "Molecule": "Cn1c(C(=NOCc2cccc(NC(=O)OCCc3ccccc3)n2)c2ccc(F)cc2)noc1=O",
    "Reported Endpoint": "Eff. %",
    "Reported": 81
  },
  {
    "Molecule": "COc1ccc(/C(=N/OCc2cccc(NC(=O)OC(C)CC(C)C)n2)c2noc(=O)n2C)cc1 (stereo not drawn)",
    "Reported Endpoint": "Eff. %",
    "Reported": 78
  },
  {
    "Molecule": "C#CCCOC(=O)Nc1cccc(CO/N=C(/c2cccc(OC)c2)c2noc(=O)n2C)n1",
    "Reported Endpoint": "Eff. %",
    "Reported": 81
  },
  {
    "Molecule": "CCCCOC(=O)Nc1cccc(CO/N=C(/c2cccc(C)c2)c2noc(=O)n2C)n1",
    "Reported Endpoint": "Eff. %",
    "Reported": 81
  },
  {
    "Molecule": "CCn1c(/C(=N\\OCc2cccc(NC(=O)Cc3ccc(OC)cc3)n2)c2ccccc2)noc1=O",
    "Reported Endpoint": "Eff. %",
    "Reported": 78
  },
  {
    "Molecule": "C#CC(C)(C)OC(=O)Nc1cccc(CO/N=C(/c2ccccc2)c2noc(=O)n2C)n1",
    "Reported Endpoint": "Eff. %",
    "Reported": 81
  }
]

* * *

The following compounds are listed with their measured Eff. % values.
- Tested on: Plasmopara viticola
- Protocol Summary: Plasmopara test (grapevines)/preventive
- Assay type: in vivo
- Details: preventive spray, 10 ppm of active ingredient, evaluated 6 days after inoculation

[
  {
    "Compound": "C#CCCOC(=O)Nc1cccc(CO/N=C(/c2ccccc2)c2noc(=O)n2C)n1 [Example 3]",
    "Eff. % / %": 100
  },
  {
    "Compound": "COc1cccc(C(=O)Nc2cccc(CO/N=C(/c3ccccc3)c3noc(=O)n3C)n2)c1 [Example 44]",
    "Eff. % / %": 98
  },
  {
    "Compound": "CCCCCCNc1cccc(CO/N=C(/c2ccccc2)c2noc(=O)n2C)n1 [Example 163]",
    "Eff. % / %": 96
  },
  {
    "Compound": "CC(C)CCCC(=O)Nc1cccc(CO/N=C(/c2ccccc2)c2noc(=O)n2C)n1 [Example 95]",
    "Eff. % / %": 100
  },
  {
    "Compound": "Cn1c(/C(=N\\OCc2cccc(NC(=O)c3ccc(F)cc3)n2)c2ccccc2)noc1=O [Example 364]",
    "Eff. % / %": 100
  },
  {
    "Compound": "C#CCCOC(=O)Nc1cccc(CO/N=C(/c2ccccc2)c2noc(=O)n2CC)n1 [Example 104]",
    "Eff. % / %": 100
  },
  {
    "Compound": "CCCCC(C)C(=O)Nc1cccc(CON=C(c2ccccc2)c2noc(=O)n2C)n1 (stereo not drawn) [Example 244]",
    "Eff. % / %": 86
  },
  {
    "Compound": "CCCCC(C)(C)C(=O)Nc1cccc(CO/N=C(/c2ccccc2)c2noc(=O)n2C)n1 [Example 316]",
    "Eff. % / %": 84
  },
  {
    "Compound": "Cn1c(C(=NOCc2cccc(NC(=O)c3ccc(Cl)cc3)n2)c2ccccc2)noc1=O [Example 245]",
    "Eff. % / %": 93
  },
  {
    "Compound": "C#CCCOC(=O)Nc1cccc(CO/N=C(/c2cccc(OC)c2)c2noc(=O)n2C)n1 [Example 228]",
    "Eff. % / %": 93
  },
  {
    "Compound": "CCCCCOC(=O)Nc1cccc(CO/N=C(/c2cccc(F)c2)c2noc(=O)n2C)n1 [Example 406]",
    "Eff. % / %": 79
  },
  {
    "Compound": "Cn1c(/C(=N\\OCc2cccc(NC(=O)c3ccc(Cl)c(Cl)c3)n2)c2ccccc2)noc1=O [Example 352]",
    "Eff. % / %": 79
  },
  {
    "Compound": "CC(Oc1ccccc1)C(=O)Nc1nc(CO/N=C(/c2ccccc2)c2noc(=O)n2C)cs1 (stereo not drawn) [Example 19]",
    "Eff. % / %": 97
  },
  {
    "Compound": "Cn1c(/C(=N\\OCc2cccc(NC(=O)c3cccc(Br)c3)n2)c2ccccc2)noc1=O [Example 380]",
    "Eff. % / %": 95
  },
  {
    "Compound": "COc1cccc(OCC(=O)Nc2nc(CO/N=C(/c3ccccc3)c3noc(=O)n3C)cs2)c1 [Example 318]",
    "Eff. % / %": 93
  },
  {
    "Compound": "Cn1c(/C(=N\\OCc2cccc(NC(=O)CCC3(C)CC3)n2)c2ccccc2)noc1=O [Example 166]",
    "Eff. % / %": 95
  },
  {
    "Compound": "CC(C)C(C)OC(=O)Nc1cccc(CO/N=C(/c2ccccc2)c2noc(=O)n2C)n1 (stereo not drawn) [Example 292]",
    "Eff. % / %": 90
  },
  {
    "Compound": "C#CCCOC(=O)Nc1cccc(CO/N=C(/c2ccccc2)c2noc(=O)n2CC=C)n1 [Example 405]",
    "Eff. % / %": 85
  },
  {
    "Compound": "C#CC(C)(C)OC(=O)Nc1cccc(CO/N=C(/c2ccccc2)c2noc(=O)n2C)n1 [Example 317]",
    "Eff. % / %": 91
  },
  {
    "Compound": "CCCCCOC(=O)Nc1cccc(CO/N=C(/c2ccccc2)c2noc(=O)n2C)n1 [Example 2]",
    "Eff. % / %": 97
  },
  {
    "Compound": "CCCCC(=O)Nc1nc(CO/N=C(/c2ccccc2)c2noc(=O)n2C)cs1 [Example 13]",
    "Eff. % / %": 93
  },
  {
    "Compound": "C#CCOC(=O)Nc1cccc(CO/N=C(/c2ccccc2)c2noc(=O)n2C)n1 [Example 342]",
    "Eff. % / %": 100
  },
  {
    "Compound": "Cn1c(/C(=N\\OCc2cccc(NC(=O)C(F)(F)Oc3ccccc3)n2)c2ccccc2)noc1=O [Example 307]",
    "Eff. % / %": 98
  },
  {
    "Compound": "C#CCCC(C)OC(=O)Nc1cccc(CO/N=C(/c2ccccc2)c2noc(=O)n2C)n1 (stereo not drawn) [Example 395]",
    "Eff. % / %": 93
  },
  {
    "Compound": "CCCCOCC(=O)Nc1cccc(CO/N=C(/c2ccccc2)c2noc(=O)n2C)n1 [Example 240]",
    "Eff. % / %": 80
  },
  {
    "Compound": "CCCCCC(=O)Nc1cccc(CO/N=C(/c2cccc(F)c2)c2noc(=O)n2C)n1 [Example 376]",
    "Eff. % / %": 93
  },
  {
    "Compound": "Cn1c(/C(=N\\OCc2cccc(NC(=O)CC3CCCC3)n2)c2ccccc2)noc1=O [Example 365]",
    "Eff. % / %": 98
  }
]
